All figures here come from a collection of fitness landscapes (doi:10.1126/science.1257360).

B1: PhoQ; a variant is named by its letters at X, in order, P23837 (parent)
chain: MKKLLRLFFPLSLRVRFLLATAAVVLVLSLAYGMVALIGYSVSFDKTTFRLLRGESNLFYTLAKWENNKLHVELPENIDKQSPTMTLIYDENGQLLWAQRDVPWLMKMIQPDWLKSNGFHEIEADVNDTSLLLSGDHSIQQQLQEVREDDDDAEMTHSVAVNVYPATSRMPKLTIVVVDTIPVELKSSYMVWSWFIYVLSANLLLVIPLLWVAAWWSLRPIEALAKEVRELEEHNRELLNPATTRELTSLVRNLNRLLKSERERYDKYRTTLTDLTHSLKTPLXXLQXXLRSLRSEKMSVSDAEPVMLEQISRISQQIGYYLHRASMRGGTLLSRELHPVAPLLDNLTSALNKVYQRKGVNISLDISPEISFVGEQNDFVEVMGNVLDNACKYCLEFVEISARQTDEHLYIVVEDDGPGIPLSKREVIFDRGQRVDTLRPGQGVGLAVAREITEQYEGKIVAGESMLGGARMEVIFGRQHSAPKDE

# Variants of: B1
# assay_procedure: enrichment ratio after two sorts for PhoP signalling (ratio (wild type AVST 3.29)); higher = more functional
# applied_conditions: with PhoP (E. coli)
Whole data set: some 140,000 sequences, median “enrichment ratio after two sorts for PhoP signalling” near 0, cut for the highest 2% near 11. Only a selection was taken, and the highest values are over-represented in it overall.
quantity_name: enrichment ratio

Examples from the recorded data:
Exercise: Quick one: enrichment ratio of MVRF ?
Solution: ≤ 0.25

Exercise: Give its enrichment ratio value. Item: QPGN
Solution: ≤ 0.25

Exercise: Requested read-out: enrichment ratio. Entry: TTDM
Solution: 22.8

Exercise: # input variant: KASQ ; wanted: its enrichment ratio
Solution: ≤ 0.25

Exercise: Quick one: enrichment ratio for TWHE ?
Solution: ≤ 0.25

Exercise: Using the record for AKDL , report its enrichment ratio.
Solution: ≤ 0.25

***
Exercise: Report enrichment ratio for TQPA please.
Solution: ≤ 0.25

Exercise: Which enrichment ratio reading was recorded for the variant MECV ?
Solution: 18.2

Exercise: Could you tell me which enrichment ratio is on file for AQCS ?
Solution: 11.1

Exercise: Suppose we examine the variant FIVP ; what enrichment ratio value has been reported?
Solution: ≤ 0.25

Exercise: For the variant KCGN , what enrichment ratio is on record?
Solution: ≤ 0.25
